# EXPERIMENT_DESCRIPTION: Metabolic stability in human liver microsomes
# Type: in vitro ADME
# CONDITION: pH 7.4, 37° C.
Collected microsomal CLint values appear next to each entry.
I only need the number, in µL/min/mg, no unit after it.

These recorded examples may help you get a feel for the data.
[
  {
    "COMPOUND": "CC(C)c1cc(Oc2c(Cl)cc(-n3nc(C#N)c(=O)[nH]c3=O)cc2Cl)n[nH]c1=O [MGL-3196, Resmetirom, reference compound]",
    "UNIT_ABBREV": "µL/min/mg",
    "RECORDED_VALUE": 2.21
  },
  {
    "COMPOUND": "N#Cc1nn(-c2ccc(Oc3cc(CC4CCCC4)c(=O)[nH]n3)c(F)c2)c(=O)[nH]c1=O [Compound 7]",
    "UNIT_ABBREV": "µL/min/mg",
    "RECORDED_VALUE": 0.12
  },
  {
    "COMPOUND": "Cc1c(Oc2ccc(-n3nc(C#N)c(=O)[nH]c3=O)cc2Cl)n[nH]c(=O)c1C [Compound 24]",
    "UNIT_ABBREV": "µL/min/mg",
    "RECORDED_VALUE": 0.452
  }
]

Now examine the next entry.
Q) Given the compound N#Cc1nn(-c2cc(Cl)c(Oc3cc(CC4CCCC4)c(=O)[nH]n3)c(Cl)c2)c(=O)[nH]c1=O [Compound 6] , what is its reported microsomal CLint?
A) 0.18
